protein stability index listing for selected variants.
B1: SLC22A15 (parent)
chain: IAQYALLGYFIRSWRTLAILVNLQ

- Variants of: B1
- protocol.notes: protein stability index of a GFP-peptide fusion (GPS, HEK-293T) (PSI 1-6); higher = more stable;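 note: lentivirally expressed fusions sorted by FACS into six bins by GFP to DsRed ratio, PSI derived from sequencing read proportions per bin multiplied by bin number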
- test.context: c terminus: a fixed tail appended
Response field accepts a number only; no unit should be typed.

Please review the following examples before continuing.
* I19C | 3.7
* L20D | 2.57
* Y4A | 3

// switching to the query variant
Request: Give its protein stability index value. Item: T16N
Result: 2.63
